This collection of values is drawn from patent US5641779A.

# tested.system: α2-Adrenergic receptor (Rattus norvegicus, UniProt P22909)
# Construct: in the rat brain; from tissue; host or cells: rat brain
# Sequence (P22909 whole entry): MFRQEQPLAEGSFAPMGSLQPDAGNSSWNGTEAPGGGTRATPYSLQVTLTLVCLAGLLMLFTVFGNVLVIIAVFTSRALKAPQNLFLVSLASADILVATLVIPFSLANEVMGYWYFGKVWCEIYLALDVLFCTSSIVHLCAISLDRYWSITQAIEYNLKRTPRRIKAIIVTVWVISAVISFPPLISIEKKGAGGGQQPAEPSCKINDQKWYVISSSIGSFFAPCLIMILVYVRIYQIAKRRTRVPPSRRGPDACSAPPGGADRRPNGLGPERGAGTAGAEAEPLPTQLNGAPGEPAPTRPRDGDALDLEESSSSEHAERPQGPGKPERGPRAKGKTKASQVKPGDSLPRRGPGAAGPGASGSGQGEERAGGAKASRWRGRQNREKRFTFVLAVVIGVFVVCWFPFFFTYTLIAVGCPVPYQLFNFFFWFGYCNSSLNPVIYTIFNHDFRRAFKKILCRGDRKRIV
# measurement.description: α2-Adrenergic receptor binding (Mallard et al.)
pIC50: −log10 of the molar value. Structures can show the parent of a compound that is named as a salt.
endpoint.name: pIC50

IN: Given the entry COc1cccc(N2CCN(C(=O)COc3ccc4[nH]cc(CCN)c4c3)CC2)c1 [Example 6, hydrochloride] , report its measured pIC50.
OUT: < 6.00

###

# tested.system: D2-Dopaminergic receptor (Canis lupus familiaris, UniProt Q9GJU1)
# Construct: from tissue
# Sequence (Q9GJU1 whole entry): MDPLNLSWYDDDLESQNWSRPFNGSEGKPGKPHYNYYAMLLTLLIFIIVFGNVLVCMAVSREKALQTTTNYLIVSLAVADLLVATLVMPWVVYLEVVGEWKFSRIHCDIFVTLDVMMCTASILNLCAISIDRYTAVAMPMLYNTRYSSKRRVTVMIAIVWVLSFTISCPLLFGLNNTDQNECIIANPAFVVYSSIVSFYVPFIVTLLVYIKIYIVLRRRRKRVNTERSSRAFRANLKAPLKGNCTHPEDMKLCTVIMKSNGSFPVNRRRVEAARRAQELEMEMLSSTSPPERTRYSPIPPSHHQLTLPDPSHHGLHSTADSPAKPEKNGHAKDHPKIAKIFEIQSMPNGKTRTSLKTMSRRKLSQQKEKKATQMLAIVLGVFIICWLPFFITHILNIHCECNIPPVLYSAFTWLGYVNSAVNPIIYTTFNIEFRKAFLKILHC
# measurement.description: D2-Dopaminergic receptor binding (Nisnik et al.)
Structures can show the parent of a compound that is named as a salt.
endpoint.name: IC50

IN: What is its IC50 for D2-Dopaminergic receptor (Canis lupus familiaris, UniProt Q9GJU1)? Entry: COc1cccc(N2CCN(C(=O)COc3ccc4[nH]cc(CCN)c4c3)CC2)c1 [Example 6, hydrochloride]
OUT: > 1 µM

###

# tested.system: D2-Dopaminergic receptor (Canis lupus familiaris)
# Construct: from tissue
# measurement.description: D2-Dopaminergic receptor binding (Nisnik et al.)
# condition.notes: 3H-YM-09159-2 (title of cited method); read-out: IC50 D2
pIC50: −log10 of the molar value. Counter-ions that a name gives are not always drawn.
endpoint.name: pIC50

Worked set:
Cc1cccc(N2CCN(C(=O)COc3ccc4[nH]cc(CCNC(=O)OC(C)(C)C)c4c3)CC2)c1C [Example 5A, hydrochloride] : < 6.00
Cc1cccc(N2CCN(C(=O)COc3ccc4[nH]cc(CCN)c4c3)CC2)c1C [Example 5, hydrochloride] : < 6.00

IN: What measured pIC50 goes with NCCc1c[nH]c2ccc(OC(C(=O)N3CCN(c4cccc5ccccc45)CC3)c3ccccc3)cc12 (stereo not drawn) [Example 10, hydrochloride] ?
OUT: < 6.00

###

# tested.system: 5-HT1C (Sus scrofa, UniProt K7GSR7)
# Construct: serotonergic ligands to the porcine choroid plexus; from tissue; host or cells: porcine choroid plexus
# Sequence (K7GSR7 1-457): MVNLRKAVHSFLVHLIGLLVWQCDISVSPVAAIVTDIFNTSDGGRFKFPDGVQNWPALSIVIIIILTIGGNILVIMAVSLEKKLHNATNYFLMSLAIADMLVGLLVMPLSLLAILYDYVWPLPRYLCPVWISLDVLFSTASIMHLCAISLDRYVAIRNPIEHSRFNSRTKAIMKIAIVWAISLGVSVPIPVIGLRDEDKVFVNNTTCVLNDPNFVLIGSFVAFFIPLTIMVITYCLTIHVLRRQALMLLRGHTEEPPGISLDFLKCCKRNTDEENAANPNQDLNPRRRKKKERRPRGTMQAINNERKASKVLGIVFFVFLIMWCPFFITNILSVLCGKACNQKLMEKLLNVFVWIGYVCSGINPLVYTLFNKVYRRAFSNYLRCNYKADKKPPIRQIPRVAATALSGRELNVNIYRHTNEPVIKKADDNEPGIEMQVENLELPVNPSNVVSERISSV
# measurement.description: 5-HT1C receptor binding (Pazos et al.)
# Set-up: species or system porcine
Counter-ions that a name gives are not always drawn.
This section presents molecules with their documented IC50 values.
API: value field is a number in µM; no unit string.

The examples below pair each entry with its known result.
Cc1ccccc1N1CCN(C(=O)COc2ccc3[nH]cc(CCN)c3c2)CC1 [Example 1, hydrochloride] : 3
NCCc1c[nH]c2ccc(OCC(=O)N3CCN(c4cccc5ccccc45)CC3)cc12 [Example 4, hydrochloride] : 1.8
Cc1ccccc1N1CCN(C(=O)C(C)Oc2ccc3[nH]cc(CCN)c3c2)CC1 (stereo not drawn) [Example 11, hydrochloride] : 1

Then this molecule:
IN: Sample NCCc1c[nH]c2ccc(OCC(=O)N3CCN(c4cccc(C(F)(F)F)c4)CC3)cc12 [Example 3, hydrochloride] — what was its IC50?
OUT: 4

###

# System: 5-HT1D
# measurement.description: Affinity for 5-HT1D receptors (3H-5-HT binding, sheep caudate nuclei membranes)
# condition.notes: Ratio of the IC50 values for the 5HT1A and 5HT1D receptors
Counter-ions that a name gives are not always drawn.
Each entry below lists one item and its recorded Ratio 1A/1D value.

Some solved entries appear below for comparison.
NCCc1c[nH]c2ccc(OC(C(=O)N3CCN(c4cccc5ccccc45)CC3)c3ccccc3)cc12 (stereo not drawn) [Example 10, hydrochloride] : 0.7
CN1CCN(C(=O)COc2ccc3[nH]cc(CCN)c3c2)CC1 [Example 7, hydrochloride] : > 1.4
Cc1cccc(N2CCN(C(=O)COc3ccc4[nH]cc(CCN)c4c3)CC2)c1C [Example 5, hydrochloride] : 8.2
Cc1ccccc1N1CCN(C(=O)COc2ccc3[nH]cc(CCNC(=O)OC(C)(C)C)c3c2)CC1 [ID, hydrochloride] : 18.5
Cc1ccccc1N1CCN(C(=O)COc2ccc3[nH]cc(CCN)c3c2)CC1 [Example 1, hydrochloride] : 11.2
COc1cccc(N2CCN(C(=O)COc3ccc4[nH]cc(CCNC(=O)OC(C)(C)C)c4c3)CC2)c1 [Example 6A, hydrochloride] : 6.3
Cc1cccc(N2CCN(C(=O)COc3ccc4[nH]cc(CCNC(=O)OC(C)(C)C)c4c3)CC2)c1C [Example 5A, hydrochloride] : 17.3
Cc1ccccc1N1CCN(C(=O)C(Oc2ccc3[nH]cc(CCN)c3c2)c2ccccc2)CC1 (stereo not drawn) [Example 9, hydrochloride] : 1.7
NCCc1c[nH]c2ccc(OCC(=O)N3CCN(c4cccc(C(F)(F)F)c4)CC3)cc12 [Example 3, hydrochloride] : 4.8
NCCc1c[nH]c2ccc(OCC(=O)N3CCN(c4cccc5ccccc45)CC3)cc12 [Example 4, hydrochloride] : 35.9

IN: Value lookup for Ratio 1A/1D; key = Cc1ccccc1N1CCN(C(=O)C(C)Oc2ccc3[nH]cc(CCN)c3c2)CC1 (stereo not drawn) [Example 11, hydrochloride]
OUT: 20.8

IN: # get_value(readout='Ratio 1A/1D', item= COc1cccc(N2CCN(C(=O)COc3ccc4[nH]cc(CCN)c4c3)CC2)c1 [Example 6, hydrochloride] )
OUT: 8.1

###

# tested.system: 5-HT1C (Sus scrofa)
# Construct: serotonergic ligands to the porcine choroid plexus; from tissue; host or cells: porcine choroid plexus
# measurement.description: 5-HT1C receptor binding (Pazos et al.)
# Design: species or system porcine
# condition.notes: porcine choroid plexus (title of cited method); read-out: IC50 5-HT1C
Structures can show the parent of a compound that is named as a salt.
endpoint.name: pIC50
Worth noting: pIC50 values are minus log10 of concentrations stated in mol/L.

Cc1cccc(N2CCN(C(=O)COc3ccc4[nH]cc(CCNC(=O)OC(C)(C)C)c4c3)CC2)c1C [Example 5A, hydrochloride] : 6.00

In the following, a different compound is considered.
IN: Given the entry Cc1ccccc1N1CCN(C(=O)C(Oc2ccc3[nH]cc(CCN)c3c2)c2ccccc2)CC1 (centres unmarked) [Example 9, hydrochloride] , what pIC50 was observed with 5-HT1C (Sus scrofa)?
OUT: 6.22

###

# tested.system: 5-HT1B (Rattus norvegicus, UniProt P28564)
# Construct: from tissue; host or cells: rat frontal cortex
# Sequence (P28564 whole entry): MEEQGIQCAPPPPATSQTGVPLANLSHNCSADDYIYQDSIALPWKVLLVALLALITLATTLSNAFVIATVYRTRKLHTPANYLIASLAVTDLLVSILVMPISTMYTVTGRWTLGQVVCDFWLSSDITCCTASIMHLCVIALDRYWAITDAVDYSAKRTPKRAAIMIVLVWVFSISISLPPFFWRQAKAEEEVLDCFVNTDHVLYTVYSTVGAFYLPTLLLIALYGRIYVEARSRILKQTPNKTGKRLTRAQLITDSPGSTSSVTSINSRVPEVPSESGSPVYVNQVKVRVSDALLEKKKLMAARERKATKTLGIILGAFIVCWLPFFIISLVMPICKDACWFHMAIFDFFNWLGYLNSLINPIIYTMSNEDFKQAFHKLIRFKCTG
# measurement.description: 5-HT1B receptor binding (Peroutka)
Counter-ions that a name gives are not always drawn.
The entries below are paired with their reported pIC50.
The meaning of pIC50 here: minus log10 of the concentration in molar units.

// known answers, use as guide
NCCc1c[nH]c2ccc(OCC(=O)N3CCN(c4cccc5ccccc45)CC3)cc12 [Example 4, hydrochloride] : 8.72
Cc1cccc(N2CCN(C(=O)COc3ccc4[nH]cc(CCN)c4c3)CC2)c1C [Example 5, hydrochloride] : 8.22
COc1cccc(N2CCN(C(=O)COc3ccc4[nH]cc(CCN)c4c3)CC2)c1 [Example 6, hydrochloride] : 8.96
Cc1ccccc1N1CCN(C(=O)COc2ccc3[nH]cc(CCN)c3c2)CC1 [Example 1, hydrochloride] : 9.22
Cc1ccccc1N1CCN(C(=O)C(C)Oc2ccc3[nH]cc(CCN)c3c2)CC1 (stereo not drawn) [Example 11, hydrochloride] : 8.26

For the next question, use this molecule.
IN: Bench note: what pIC50 did NCCc1c[nH]c2ccc(OCC(=O)N3CCN(c4cccc(C(F)(F)F)c4)CC3)cc12 [Example 3, hydrochloride] show?
OUT: 8.72

###

# tested.system: 5-HT1B (Rattus norvegicus, UniProt P28564)
# Construct: from tissue; host or cells: rat frontal cortex
# measurement.description: 5-HT1B receptor binding (Peroutka)
# condition.notes: rat frontal cortex (title of cited method); mean; read-out: IC50 5-HT1B mean
pIC50: −log10 of the molar value. Counter-ions that a name gives are not always drawn.
Given measured pIC50, output label 1 if it is greater than or equal to 7 and label 0 if not.

// below: answered compounds
COc1cccc(N2CCN(C(=O)COc3ccc4[nH]cc(CCNC(=O)OC(C)(C)C)c4c3)CC2)c1 [Example 6A, hydrochloride] : label 1
NCCc1c[nH]c2ccc(OC(C(=O)N3CCN(c4cccc5ccccc45)CC3)c3ccccc3)cc12 (stereo not drawn) [Example 10, hydrochloride] : label 0
CSc1ccc2c(c1)C(N1CCN(C(=O)COc3ccc4[nH]cc(CCNC(=O)OC(C)(C)C)c4c3)CC1)Cc1ccccc1S2 (stereo not drawn) [Example 8, hydrochloride] : label 0
Cc1cccc(N2CCN(C(=O)COc3ccc4[nH]cc(CCNC(=O)OC(C)(C)C)c4c3)CC2)c1C [Example 5A, hydrochloride] : label 1

IN: # bool: pIC50 of CN1CCN(C(=O)COc2ccc3[nH]cc(CCN)c3c2)CC1 [Example 7, hydrochloride] >= 7
OUT: label 0

###

# pIC50 annotations
# tested.system: 5-HT2 (Rattus norvegicus)
# Sequence (P14842 whole entry): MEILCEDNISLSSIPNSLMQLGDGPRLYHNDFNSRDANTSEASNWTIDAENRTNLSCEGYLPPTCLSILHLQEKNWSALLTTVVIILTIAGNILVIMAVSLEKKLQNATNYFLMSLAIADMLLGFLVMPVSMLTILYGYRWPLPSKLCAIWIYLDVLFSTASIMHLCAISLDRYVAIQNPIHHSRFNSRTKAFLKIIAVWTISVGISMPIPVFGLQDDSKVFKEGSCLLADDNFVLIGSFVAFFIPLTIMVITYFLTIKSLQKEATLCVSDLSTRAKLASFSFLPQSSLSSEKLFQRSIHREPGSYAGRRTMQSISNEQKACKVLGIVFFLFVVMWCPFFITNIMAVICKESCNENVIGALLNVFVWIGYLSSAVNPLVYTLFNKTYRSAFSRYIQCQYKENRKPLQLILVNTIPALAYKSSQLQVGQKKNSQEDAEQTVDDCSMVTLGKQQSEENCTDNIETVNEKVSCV
pIC50: −log10 of the molar value. Structures can show the parent of a compound that is named as a salt.

Worked examples, 5 molecules total:
Cc1ccccc1N1CCN(C(=O)COc2ccc3[nH]cc(CCN)c3c2)CC1 [Example 1, hydrochloride] : < 6.00
NCCc1c[nH]c2ccc(OCC(=O)N3CCN(c4cccc(C(F)(F)F)c4)CC3)cc12 [Example 3, hydrochloride] : < 6.00
CN1CCN(C(=O)COc2ccc3[nH]cc(CCN)c3c2)CC1 [Example 7, hydrochloride] : < 6.00
NCCc1c[nH]c2ccc(OC(C(=O)N3CCN(c4cccc5ccccc45)CC3)c3ccccc3)cc12 (centres unmarked) [Example 10, hydrochloride] : < 6.00
COc1cccc(N2CCN(C(=O)COc3ccc4[nH]cc(CCNC(=O)OC(C)(C)C)c4c3)CC2)c1 [Example 6A, hydrochloride] : < 6.00

IN: # returns recorded pIC50 (system: 5-HT2 (Rattus norvegicus)) for COc1cccc(N2CCN(C(=O)COc3ccc4[nH]cc(CCN)c4c3)CC2)c1 [Example 6, hydrochloride]
OUT: < 6.00

IN: For the record Cc1cccc(N2CCN(C(=O)COc3ccc4[nH]cc(CCN)c4c3)CC2)c1C [Example 5, hydrochloride] , what value of pIC50 is listed for 5-HT2 (Rattus norvegicus)?
OUT: < 6.00

IN: Enter reported pIC50 observed with 5-HT2 (Rattus norvegicus) for NCCc1c[nH]c2ccc(OCC(=O)N3CCN(c4cccc5ccccc45)CC3)cc12 [Example 4, hydrochloride]
OUT: < 6.00
